So I've got a bunch of molecules here, and I need their viability, T/C values.
- System: 521955-158-R2-J5-PDC complex spheroid viability
- Experiment: Anticancer human tumor 521955-158-R2-J5-PDC patient-derived pancreatic carcinoma cell line growth inhibition [GQUAD]
- Test Settings: second compound 1 µM; first compound 0.316 µM; hits give low values
Give bare numbers, in %.

Reference set, count: 2
Request: Give viability, T/C for the following molecule: CC1COCCN1c1cc(C2(S(C)(=N)=O)CC2)nc(-c2ccnc3[nH]ccc23)n1 (stereo not drawn) + Cc1[nH]c2ccc(F)cc2c1-c1nc2c3cccnc3c3ncccc3c2[nH]1
Response: 117

Request: Please report the measured viability, T/C for Cc1cccc(N(C)C(=O)C2C(O)CCN2c2nc(C)cc(C(F)(F)F)c2C#N)c1 (stereo not drawn) + Cc1[nH]c2ccc(F)cc2c1-c1nc2c3cccnc3c3ncccc3c2[nH]1
Response: 108

// next entry
Request: Name the recorded viability, T/C of the item Nc1ccn(C2OC(CO)C(O)C2(F)F)c(=O)n1 (stereo not drawn) + Cc1[nH]c2ccc(F)cc2c1-c1nc2c3cccnc3c3ncccc3c2[nH]1 in your answer.
Response: 61.6

###

Consider the following molecules; for each one, report its viability, T/C.
- Test system: 521955-158-R2-J5-PDC complex spheroid viability
- Experiment: Anticancer human tumor 521955-158-R2-J5-PDC cell line growth inhibition [GQUAD];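 further: spheroids exposed to agents for one week before reading; 100% = DMSO vehicle control viability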
- Test Settings: second compound 0.1 µM; first compound 1 µM; hits give low values
Give bare numbers, in %.

Answered examples (10):
Request: Determine from records and report viability, T/C for CC1COCCN1c1cc(-c2ccnn2C)c2ccnc(-c3ccn[nH]3)c2n1 (stereo unspecified) + Cc1[nH]c2ccc(F)cc2c1-c1nc2c3cccnc3c3ncccc3c2[nH]1
Response: 12.4

Request: In one line, give reported viability, T/C of the entry CC1COCCN1c1cc(-c2ccnn2C)c2ccnc(-c3ccn[nH]3)c2n1 (stereo unspecified) + Cc1cnc(CNC(=O)c2c(=O)c3ccc(N4CCCN(C)CC4)nc3n3c2sc2ccccc23)cn1 .
Response: 10.2

Request: Write down viability, T/C measured for item Nc1ccn(C2OC(CO)C(O)C2(F)F)c(=O)n1 (stereo unspecified) + Cc1[nH]c2ccc(F)cc2c1-c1nc2c3cccnc3c3ncccc3c2[nH]1
Response: 22.3

Request: Please list viability, T/C recorded for the molecule CC(C)(O)C1CCC(Nc2ccc3ncc(-c4cccc(C(F)(F)F)c4)n3n2)CC1 (stereo unspecified) + Cc1[nH]c2ccc(F)cc2c1-c1nc2c3cccnc3c3ncccc3c2[nH]1
Response: 117

Request: State its viability, T/C: CC1COCCN1c1cc(C2(S(C)(=N)=O)CC2)nc(-c2ccnc3[nH]ccc23)n1 (stereo unspecified) + CN(C)c1ccc(Nc2c3ccc(NC(=O)CCN4CCCC4)cc3nc3cc(NC(=O)CCN4CCCC4)ccc23)cc1
Response: 38.4

Request: Tell me its viability, T/C given CC(C)n1c(=O)n(C)c2cnc3cc(F)c(-c4ccc(OCCCN5CCCCC5)nc4)cc3c21 + Cc1cnc(CNC(=O)c2c(=O)c3ccc(N4CCCN(C)CC4)nc3n3c2sc2ccccc23)cn1 as the entry.
Response: 54.1

Request: Complete the entry with viability, T/C for C=CC(=O)N1CCN(c2nc(=O)n(-c3c(C)ccnc3C(C)C)c3nc(-c4c(O)cccc4F)c(F)cc23)C(C)C1 (stereo unspecified) + Cc1cnc(CNC(=O)c2c(=O)c3ccc(N4CCCN(C)CC4)nc3n3c2sc2ccccc23)cn1
Response: 57.3

Request: Find the measured viability, T/C of Nc1ccn(C2OC(CO)C(O)C2(F)F)c(=O)n1 (stereo unspecified) + CN(C)c1ccc(Nc2c3ccc(NC(=O)CCN4CCCC4)cc3nc3cc(NC(=O)CCN4CCCC4)ccc23)cc1 and report it.
Response: 32.3

Request: Please give the documented viability, T/C of O=C(NO)c1cnc(N2CCN(S(=O)(=O)c3ccc4ccccc4c3)CC2)nc1 + Cc1[nH]c2ccc(F)cc2c1-c1nc2c3cccnc3c3ncccc3c2[nH]1
Response: 48.5

Request: Write down viability, T/C measured for item COc1cc(C2c3cc4c(cc3C(OC3OC5COC(C)OC5C(O)C3O)C3COC(=O)C23)OCO4)cc(OC)c1O (stereo unspecified) + CN(C)c1ccc(Nc2c3ccc(NC(=O)CCN4CCCC4)cc3nc3cc(NC(=O)CCN4CCCC4)ccc23)cc1
Response: 43.1

Further cases:
Request: # return recorded viability, T/C for input CCCS(=O)(=O)Nc1ccc(F)c(C(=O)c2c[nH]c3ncc(-c4ccc(Cl)cc4)cc23)c1F + Cc1[nH]c2ccc(F)cc2c1-c1nc2c3cccnc3c3ncccc3c2[nH]1
Response: 97.4

###

- Test system: 521955-158-R2-J5-PDC complex spheroid viability
- Experiment: Anticancer human tumor 521955-158-R2-J5-PDC cell line growth inhibition [GQUAD];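 further: spheroids exposed to agents for one week before reading; 100% = DMSO vehicle control viability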
- Test Settings: second compound 0.0316 µM; first compound 0.1 µM; hits give low values
For each entry below, report its viability, T/C value.
Numbers only, in %.

Request: Tell me measured viability, T/C for CC(C)n1c(=O)n(C)c2cnc3cc(F)c(-c4ccc(OCCCN5CCCCC5)nc4)cc3c21 + Cc1[nH]c2ccc(F)cc2c1-c1nc2c3cccnc3c3ncccc3c2[nH]1 please.
Response: 90.8

Hi, could you look up viability, T/C for each item in my list?
1. CCCS(=O)(=O)Nc1ccc(F)c(C(=O)c2c[nH]c3ncc(-c4ccc(Cl)cc4)cc23)c1F + CN(C)c1ccc(Nc2c3ccc(NC(=O)CCN4CCCC4)cc3nc3cc(NC(=O)CCN4CCCC4)ccc23)cc1
2. CC(C)(O)C1CCC(Nc2ccc3ncc(-c4cccc(C(F)(F)F)c4)n3n2)CC1 (stereo not given) + Cc1cnc(CNC(=O)c2c(=O)c3ccc(N4CCCN(C)CC4)nc3n3c2sc2ccccc23)cn1
3. O=c1[nH]cc(F)c(=O)[nH]1 + Cc1[nH]c2ccc(F)cc2c1-c1nc2c3cccnc3c3ncccc3c2[nH]1
4. C#Cc1c(F)ccc2cc(O)cc(-c3ncc4c(N5CC6CCC(C5)N6)nc(OCC56CCCN5CC(F)C6)nc4c3F)c12 (stereo not given) + Cc1cnc(CNC(=O)c2c(=O)c3ccc(N4CCCN(C)CC4)nc3n3c2sc2ccccc23)cn1

Response:
1: 89.2; 2: 64.6; 3: 84.6; 4: 31.3

###

- System: 521955-158-R2-J5-PDC complex spheroid viability
- Experiment: Anticancer human tumor 521955-158-R2-J5-PDC cell line growth inhibition [GQUAD];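 further: spheroids exposed to agents for one week before reading; 100% = DMSO vehicle control viability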
- Test Settings: second compound 0.0316 µM; first compound 0.1 µM; hits give low values
For each entry below, report its viability, T/C value.
Answers are plain numbers, in %.

Worked examples, 2 molecules total:
Request: Report viability, T/C for COc1cc(C2c3cc4c(cc3C(OC3OC5COC(C)OC5C(O)C3O)C3COC(=O)C23)OCO4)cc(OC)c1O (stereo not drawn) + Cc1cnc(CNC(=O)c2c(=O)c3ccc(N4CCCN(C)CC4)nc3n3c2sc2ccccc23)cn1
Response: 70.8

Request: Consider the molecule O=C(c1cc(Cc2n[nH]c(=O)c3ccccc23)ccc1F)N1CCN(C(=O)C2CC2)CC1 + Cc1[nH]c2ccc(F)cc2c1-c1nc2c3cccnc3c3ncccc3c2[nH]1 . State its measured viability, T/C.
Response: 88.5

New cases:
Request: Return viability, T/C for the following molecule: CC1COCCN1c1cc(-c2ccnn2C)c2ccnc(-c3ccn[nH]3)c2n1 (stereo not drawn) + CN(C)c1ccc(Nc2c3ccc(NC(=O)CCN4CCCC4)cc3nc3cc(NC(=O)CCN4CCCC4)ccc23)cc1
Response: 30.1

###

- Tested on: 521955-158-R2-J5-PDC complex spheroid viability
- Experiment: Anticancer human tumor 521955-158-R2-J5-PDC cell line growth inhibition [GQUAD]; active = viability on the fitted dose curve at most 10% of control; inactive = the rest;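 further: spheroids exposed to agents for one week before reading; 100% = DMSO vehicle control viability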
- Test Settings: second compound 3.16 µM; first compound 0.1 µM
Pick from Yes (active), No (inactive) when you respond.

Request: I'd appreciate the recorded outcome for O=C(c1cc(Cc2n[nH]c(=O)c3ccccc23)ccc1F)N1CCN(C(=O)C2CC2)CC1 + Cc1cnc(CNC(=O)c2c(=O)c3ccc(N4CCCN(C)CC4)nc3n3c2sc2ccccc23)cn1 from this test.
Response: No

Request: Short answer needed: outcome of this test for CC(=O)O[C@H]1C(=O)[C@@]2(C)[C@H]([C@H](OC(=O)c3ccccc3)[C@]3(O)C[C@H](OC(=O)[C@H](O)[C@@H](NC(=O)c4ccccc4)c4ccccc4)C(C)=C1C3(C)C)[C@]1(OC(C)=O)CO[C@@H]1C[C@@H]2O + Cc1cnc(CNC(=O)c2c(=O)c3ccc(N4CCCN(C)CC4)nc3n3c2sc2ccccc23)cn1 ?
Response: Yes

---
Request: Fill in: this test's call for O=c1[nH]cc(F)c(=O)[nH]1 + Cc1cnc(CNC(=O)c2c(=O)c3ccc(N4CCCN(C)CC4)nc3n3c2sc2ccccc23)cn1 is ___
Response: No

Request: Just curious, what result did COc1cccc2c1C(=O)c1c(O)c3c(c(O)c1C2=O)CC(O)(C(=O)CO)CC3OC1CC(N)C(O)C(C)O1 (stereo not given) + Cc1cnc(CNC(=O)c2c(=O)c3ccc(N4CCCN(C)CC4)nc3n3c2sc2ccccc23)cn1 get here?
Response: No

Request: // outcome(item) with item = COc1ccc([C@@H](O)c2cc(-c3ncnc4cc(N5CCOCC5)ccc34)c(F)cc2Cl)nn1 + Cc1[nH]c2ccc(F)cc2c1-c1nc2c3cccnc3c3ncccc3c2[nH]1
Response: No

Every entry's value here was drawn from PubChem BioAssay AID2060495.
